Record form. Attribute: Ratio. Fill in for each entry.
Species: Rattus norvegicus
test: Cardio selectivity ratio of Kapp for beta2 adrenergic receptor in rat lung muscle to Kapp for beta1 adrenergic receptor in rat ventricular muscle

Request: Consider the compound C=CCc1ccccc1OCC(O)CNCCc1ccc(O)cc1 (stereo unspecified) . State its measured Ratio.
Response: 1.3

Request: For the compound COc1ccc(CCNCC(O)COc2ccc(NC(C)=O)cc2)cc1OC (stereo unspecified) , report Ratio.
Response: 32

Request: Consider the compound CC(=O)Nc1ccccc1OCC(O)CNCCc1ccc(O)cc1 (stereo unspecified) . State its measured Ratio.
Response: 7.6

Request: Provide only the value of recorded Ratio for O=C1CCCc2c(OCC(O)CNCCc3ccc(O)cc3)cccc21 (stereo unspecified)
Response: 1.5

Request: Identify measured Ratio corresponding to COc1ccc(CCNCC(O)COc2ccccc2)cc1OC (stereo unspecified)
Response: 4.7

Request: Determine its reported Ratio: CC(C)(C)NCC(O)COc1cccc2c1CCCC2=O (stereo unspecified)
Response: 1.1

====

measured on: Beta-1 adrenergic receptor (Rattus norvegicus)
Please assign a class to every record based on measured Kapp, with ranges I = under 0.3 µM, II = from 0.3 µM up to 2 µM, III = 2 µM and over

Request: Band for the recorded Kapp of CC(=O)Nc1ccc(OCC(O)CNC(C)C)cc1 (racemic) ?
Response: III

Request: GET /class?item= C=CCc1ccccc1OCC(O)CNC(C)C (racemic)
Response: I

Request: Kindly state the category for this compound: CCCCCC(=O)Nc1ccc(OCC(O)CNCCc2ccc(OC)c(OC)c2)c(Cl)c1 (stereo not drawn)
Response: II

Request: # classify by Kapp band: C=CCc1ccccc1OCC(O)CNCCc1ccc(O)cc1 (stereo not drawn)
Response: I

Request: Bin this entry: COc1ccc(CCNCC(O)COc2ccccc2)cc1OC (stereo not drawn)
Response: II

Request: Entry CC(C)(C)NCC(O)COc1cccc2c1CCCC2=O (stereo not drawn) belongs to which category?
Response: I

Request: Which bin, given its Kapp, does CCCCCC(=O)Nc1ccc(OCC(O)CNCCc2ccc(O)cc2)c(Cl)c1 (stereo not drawn) occupy?
Response: III

Request: Bin this entry: CCCCCC(=O)Nc1ccc(OCC(O)CNC(C)C)cc1 (stereo not drawn)
Response: III

Request: Which class holds CC(=O)Nc1ccccc1OCC(O)CNCCc1ccc(O)cc1 (stereo not drawn) ?
Response: III

Request: Class (by measured Kapp) for CC(C)NCC(O)COc1ccccc1 (stereo not drawn)
Response: I

Request: Sort O=C1CCCc2c(OCC(O)CNCCc3ccc(O)cc3)cccc21 (stereo not drawn) into one of the categories.
Response: II

Request: // return the class label for CC(=O)Nc1ccc(OCC(O)CNCCc2ccc(O)cc2)cc1 (stereo not drawn)
Response: III

Request: Input COc1ccc(CCNCC(O)COc2ccc(NC(C)=O)cc2)cc1OC (stereo not drawn) ; output its category
Response: III
